Every entry's value here was drawn from paper PMC4367188.

system.under.test: UniProtKB Q12809
Sequence (Q12809 whole entry): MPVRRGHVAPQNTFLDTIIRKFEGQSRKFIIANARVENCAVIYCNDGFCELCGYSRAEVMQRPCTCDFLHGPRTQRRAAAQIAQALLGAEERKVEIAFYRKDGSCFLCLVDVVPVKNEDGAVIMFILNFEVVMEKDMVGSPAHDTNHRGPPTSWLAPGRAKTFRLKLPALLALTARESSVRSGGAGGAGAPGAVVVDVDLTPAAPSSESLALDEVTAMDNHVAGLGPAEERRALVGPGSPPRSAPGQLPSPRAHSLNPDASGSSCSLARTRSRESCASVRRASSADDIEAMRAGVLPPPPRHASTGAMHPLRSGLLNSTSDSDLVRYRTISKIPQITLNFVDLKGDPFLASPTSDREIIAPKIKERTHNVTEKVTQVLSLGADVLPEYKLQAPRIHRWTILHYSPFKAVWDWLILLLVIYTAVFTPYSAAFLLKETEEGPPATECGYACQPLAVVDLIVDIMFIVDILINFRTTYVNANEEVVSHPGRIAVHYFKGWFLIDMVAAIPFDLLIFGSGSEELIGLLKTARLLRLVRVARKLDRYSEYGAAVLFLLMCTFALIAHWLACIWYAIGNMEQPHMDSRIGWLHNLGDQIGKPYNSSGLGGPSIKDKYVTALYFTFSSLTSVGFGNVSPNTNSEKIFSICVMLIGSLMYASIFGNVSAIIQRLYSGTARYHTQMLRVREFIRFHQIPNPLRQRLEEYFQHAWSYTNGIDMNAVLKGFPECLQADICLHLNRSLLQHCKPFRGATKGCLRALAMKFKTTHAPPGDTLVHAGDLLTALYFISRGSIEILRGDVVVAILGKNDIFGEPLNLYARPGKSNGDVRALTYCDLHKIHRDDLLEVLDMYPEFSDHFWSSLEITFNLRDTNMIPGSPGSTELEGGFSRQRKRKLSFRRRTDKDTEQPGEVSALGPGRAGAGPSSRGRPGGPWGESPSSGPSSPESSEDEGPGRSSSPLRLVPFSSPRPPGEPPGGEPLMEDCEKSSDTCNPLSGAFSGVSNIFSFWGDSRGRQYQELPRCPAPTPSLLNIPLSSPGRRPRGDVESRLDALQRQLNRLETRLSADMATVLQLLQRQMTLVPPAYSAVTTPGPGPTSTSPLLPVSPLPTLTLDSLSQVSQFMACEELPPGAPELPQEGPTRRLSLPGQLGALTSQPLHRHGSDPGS
method.summary: Lead Profiling Screen radioligand binding
quantity.name: inhibition at 10 µM (%)

record.smiles | unit.name | value.observed
COc1ccc(C(=O)NCc2cc(C(C)C)no2)cc1OC1CCN(C)CC1 | % | 16
